B1: EHEE_rd2_0191 (parent)
chain: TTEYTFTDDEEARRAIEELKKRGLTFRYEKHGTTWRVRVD

variants of: B1; assay: folding stability dG (cDNA display proteolysis); higher = more stable; conditions: PBS, room temperature
// label = label 1 if folding stability dG is not less than 2 kcal/mol, otherwise label 0

H31K : label 1
D8S : label 1
E17W : label 1
R14E : label 0
I16T : label 0
E11P : label 0
L24Y : label 1
T33P : label 0
G23Y : label 0
A15M : label 1

Attention now shifts to the item below.
Prompt line: Is folding stability dG for K21C at or above 2 kcal/mol?
Response line: label 1
